- Tested on: MALME-3M melanoma
- ASSAY_EXPLANATION: NCI-60 one-dose screen, 48 h (100 = growth as untreated, 0 = no growth, -100 = all killed)
- EXPERIMENTAL_CONTEXT: 10 µM unless noted
The panel holds about 83,000 compounds, 20% with a hit somewhere; the sample as a whole holds those more often.
Known growth of a selection of molecules
Write the answer as a number in %, unit excluded.

COc1cc2c(c(OC)c1OC)CCC(c1cccc(C(=O)Nc3ccc([N+](=O)[O-])cc3)c1)O2 (stereo not given) ... 68.3

Would you kindly share the measured growth for COC(=O)c1nc(-c2ccccc2)oc1S(=O)(=O)NCC(c1ccc(Cl)cc1)N1CCCCC1 (stereo not given) ?
99.1

Give the measured growth of Oc1c(Cl)cc(Cl)c2ccc(CN3CCNCC3)nc12 .
67.9

Please report the recorded growth for CN1CC(c2ccccc2)C(C(=O)c2ccc(Br)cc2)C12C(=O)Nc1ccccc12 (stereo not given) .
99.4

Name the reported growth value associated with the molecule O=c1oc2ccccc2cc1-c1nn(-c2ccccc2)cc1/C=N/Nc1nc(-c2ccccc2)c(N=Nc2ccccc2)s1
77

###

compounds and their reported growth
- System: HCT-15 colon
- ASSAY_EXPLANATION: NCI-60 one-dose screen, 48 h (100 = growth as untreated, 0 = no growth, -100 = all killed)
- EXPERIMENTAL_CONTEXT: 10 µM unless noted
About 83,000 compounds went through this panel and 20% of them were active in at least one assay; those are over-represented in the sample as a whole. Calls of active or inactive are those of the source. How the source made its calls: active means growth percent below 10; inactive means the rest.

CCOC(=O)c1c(C)c2c(n1Cc1ccccc1)CSc1cc(C#N)c(=O)[nH]c1-2 ... 66.3% [100 µM] (inactive)
CCOc1ccc(N2C(=O)CCSC2=S)cc1 ... 101% (inactive)
O=C(NC1CCCCCC1)c1ccc2c(=O)n3c(nc2c1)CCCCC3 ... 80.4% (inactive)
CC(C)(C)n1cc(-c2ccnc(NCCNS(=O)(=O)c3ccc(Br)cc3)c2)c(-c2cccc(O)c2)n1 ... -0.0275% (active)
C=C(C[n+]1ccccc1)[C@@H]1CC[C@]2(C(=O)OC)CC[C@]3(C)[C@H](CC[C@@H]4[C@@]5(C)CCC(=O)C(C)(C)[C@@H]5CC[C@]43C)[C@@H]12 ... 104% (inactive)

Given Cc1ccc(Nc2nc(N)nc(N)c2N=O)cc1Cl , state its recorded growth.
70.6% (inactive)

Fill in the blank: the reported growth of O=[N+]([O-])c1ccc(Oc2cccc3c(Oc4ccc([N+](=O)[O-])cc4[N+](=O)[O-])cccc23)c([N+](=O)[O-])c1 is ____.
100% (inactive)

Need growth, item Cc1ccc(C23CCC(=O)N2CCc2cncn23)cc1 (centres undefined)
98.9% (inactive)

# lookup: growth of COc1nc2ccccc2cc1/C=[N+](\[O-])c1ccccc1
19% (inactive)

###

- Test system: HS 578T breast
- ASSAY_EXPLANATION: NCI-60 one-dose screen, 48 h (100 = growth as untreated, 0 = no growth, -100 = all killed)
- EXPERIMENTAL_CONTEXT: 10 µM unless noted
This is part of a sample that, as a whole, favours compounds with a hit. Of some 83,000 tested, about 20% had one in any assay.
PROPERTY_MEASURED: growth (%)
Just the number in %, nothing appended.

O=C1NCCN1/N=C/c1c(Cl)n(Cc2ccc(Cl)cc2)c2ccccc12 ... 90.3

What is its growth for HS 578T breast? Entry: Cc1nc2sc(C(=O)Nc3ccccc3)c(N)c2cc1C(O)c1ccccc1 (centres undefined)
8.01

HS 578T breast / growth / COc1ccc(NC(=O)c2ccc(NC3=C(c4ccc(Cl)cc4)C(=O)NC3=O)cc2)cc1 : value?
102

// map C=CCOC(=O)C1=C(C)N(CC)C(=O)N(CC)C1c1c(Cl)n(C)c2ccccc12 (centres undefined) to recorded growth (system: HS 578T breast)
89.2
